Assay: qHTS of pediatric cancer cell lines to identify multiple opportunities for drug repurposing: Confirmatory screen for OHS-50 cells (AID 1347128);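 also: compound exposure lasted 48 h at 37 degrees C; nearly all actives have a fitted effect of over 55% in size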; also: potency is read from the fitted curve at half-maximal effect
Conditions: OHS-50 osteosarcoma cells viability; series mostly up to 45.9 µM
Procedure: Drug repurposing or repositioning has been offered as a strategy for drug development in oncology programs. […] [1] Shen, M et al. Quantitative high-throughput phenotypic screening of pediatric cancer cell lines identifies multiple opportunities for drug repurposing. […] Cells were assayed in growth media at a density of 500-1,000 cells/well. […] After a 15 min incubation at room temperature, samples were analyzed for luminescence intensity using a ViewLux High-throughput CCD imager equipped with clear filters.
Results filed as inconclusive are left out. The source made the active and inactive calls. Calls follow the shape of the dose curve; as a rule, active = well fitted cell-killing curve with a large enough effect; inconclusive = small, poorly fitted or top-dose-only effect, or effect the other way; inactive = no such curve, though single readings can be large or run the other way. Starred links: 1 amine or outer side, 2 acyl side, 3 side chain; linkers in the order of their positions; H or OH if unused. Positions of bridges follow the written chain, without caps; N, C: chain ends. Non-standard residues stand in square brackets, D forms with d. Residues, ends and D or L forms follow the SMILES beside them. Chains are numbered I, II in the order given. Actinocin(9to1) = Cc1c2oc3c(C)ccc(C(=O)[*:1])c3nc-2c(C(=O)[*:2])c(N)c1=O; NMeV = CN[CH](C(=O)O)C(C)C; Sar = CNCC(=O)O

>  <compound>
CC(C)N1[N]C(=C2C=c3cc(O)ccc3=N2)c2c(N)ncnc21

>  <Potency>
5.22 µM (active)

$$$$
>  <compound>
Oc1ccc(-c2ccc(-c3cc(Nc4cccc(CNC5CC5)c4)n[nH]3)cc2)c(O)c1

>  <Potency>
1.47 µM (active)

$$$$
>  <compound>
FC(F)c1nc2ccccc2n1-c1nc(N2CCOCC2)nc(N2CCOCC2)n1

>  <Potency>
1.65 µM (active)

$$$$
>  <compound>
C[C@@]12C(=O)OC(=O)[C@@]1(C)C1CCC2O1

>  <Potency>
4.65 µM (active)

$$$$
>  <compound>
Cc1c2oc3c(C)ccc(C(=O)NC4C(=O)NC(C(C)C)C(=O)N5CCCC5C(=O)N(C)CC(=O)N(C)C(C(C)C)C(=O)OC4C)c3nc-2c(C(=O)NC2C(=O)NC(C(C)C)C(=O)N3CCCC3C(=O)N(C)CC(=O)N(C)C(C(C)C)C(=O)OC2C)c(N)c1=O (stereo not drawn) (I: TVP[Sar][NMeV] / II: TVP[Sar][NMeV]; ester I:1-I:C, II:1-II:C; linker I:N-II:N via Actinocin(9to1); configuration not given here)

>  <Potency>
0.0369 µM (active)

$$$$
>  <compound>
C[C@H]1[C@@H](OC(=O)CCC(=O)O)O[C@@H]2O[C@@]3(C)CC[C@@H]4[C@H](C)CC[C@@H]1[C@@]24OO3

>  <Potency>
3.29 µM (active)

$$$$
>  <compound>
C#CCC(Cc1cnc2nc(N)nc(N)c2n1)c1ccc(C(=O)N[C@@H](CCC(=O)O)C(=O)O)cc1 (stereo partly drawn)

>  <Potency>
0.0414 µM (active)

$$$$
>  <compound>
CNC(=O)c1ccc(Nc2cc(Nc3ccccc3S(=O)(=O)C(C)C)c3cc[nH]c3n2)nc1

>  <Potency>
8.27 µM (active)

$$$$
>  <compound>
O=C(Nc1cc2cc[nH]c2cn1)c1ccccc1

>  <Potency>
10.4 µM (active)

$$$$
>  <compound>
O=C(C=CC=Cc1ccc2c(c1)OCO2)N1CCCCC1

>  <Potency>
inactive

$$$$
>  <compound>
NS(=O)(=O)OC[C@@H]1C[C@@H](n2ccc3c(N[C@H]4CCc5ccccc54)ncnc32)C[C@H]1O

>  <Potency>
inactive

$$$$
>  <compound>
COc1cc2ncnc(Nc3cccc(Br)c3)c2cc1OC

>  <Potency>
10.4 µM (active)

$$$$
>  <compound>
CN[C@@H]1C[C@H]2O[C@@](C)([C@H]1OC)n1c3ccccc3c3c4c(c5c6ccccc6n2c5c31)C(=O)N[C@H]4O

>  <Potency>
0.585 µM (active)

$$$$
>  <compound>
C[C@H](NCc1ccc2c(c1)nc(NC(=O)c1ccc(-c3cn[nH]c3)s1)n2CCc1ccccc1)C(C)(C)C

>  <Potency>
1.47 µM (active)

$$$$
>  <compound>
Cn1cc(CNCC2CCN(c3ncc(C(=O)NO)cn3)CC2)c2ccccc21

>  <Potency>
0.131 µM (active)

$$$$
>  <compound>
COC(=O)[C@@H]1[C@H]2C[C@@H]3c4[nH]c5ccccc5c4CCN3C[C@@H]2CC[C@@H]1O

>  <Potency>
inactive

$$$$
>  <compound>
Oc1cc(-c2nc(-c3ccccc3)[nH]c2-c2ccncc2)ccc1Cl

>  <Potency>
18.5 µM (active)

$$$$
>  <compound>
CC1(C)O[C@@H]2C[C@H]3[C@@H]4CCC5=CC(=O)C=C[C@]5(C)[C@@H]4[C@@H](O)C[C@]3(C)[C@]2(C(=O)CO)O1

>  <Potency>
inactive

$$$$
>  <compound>
CCCCC(=O)O[C@]1(C(=O)CO)[C@@H](C)C[C@H]2[C@@H]3CCC4=CC(=O)C=C[C@]4(C)[C@@]3(F)[C@@H](O)C[C@@]21C

>  <Potency>
inactive

$$$$
>  <compound>
O=C(NCc1ccccc1)[C@H](Cc1ccccc1)NC(=O)[C@@H]1O[C@@H]1C(=O)NCCc1ccc(O)cc1

>  <Potency>
inactive

$$$$
>  <compound>
CC(=O)ON=C1C(c2c(O)[nH]c3cc(Br)ccc23)=Nc2ccccc21

>  <Potency>
14.7 µM (active)

$$$$
>  <compound>
COc1cccc2c1C(=O)c1c(O)c3c(c(O)c1C2=O)C[C@@](O)(C(C)=O)C[C@H]3O[C@H]1C[C@H](N)[C@H](O)[C@H](C)O1

>  <Potency>
2.08 µM (active)

$$$$
>  <compound>
CC(C=CC1=C(C)CCCC1(C)C)=CC=CC(C)=CC(=O)Nc1ccc(O)cc1

>  <Potency>
42.7 µM (active)

$$$$
>  <compound>
COc1cc(C[C@@H](CO)[C@H](CO)Cc2ccc(O)c(OC)c2)ccc1O

>  <Potency>
inactive

$$$$
>  <compound>
C=Cc1c(C)c2cc3nc(cc4[nH]c(cc5nc(cc1[nH]2)C(C)=C5CCC(=O)O)c(CCC(=O)OC)c4C)[C@@]1(C)C3=CC=C(C(=O)OC)[C@H]1C(=O)OC

>  <Potency>
inactive

$$$$
>  <compound>
Nc1ncn([C@@H]2O[C@H](CO)[C@@H](O)[C@@H]2O)c(=O)n1

>  <Potency>
5.85 µM (active)

$$$$
>  <compound>
Cc1ncc(-c2ccnc(Nc3ccc(S(C)(=O)=O)cc3)n2)n1C(C)C

>  <Potency>
3.29 µM (active)

$$$$
>  <compound>
COC1=C2C[C@@H](C)C[C@H](OC)[C@@H](O)[C@@H](C)C=C(C)[C@H](OC(N)=O)[C@@H](OC)C=CC=C(C)C(=O)NC(=CC1=O)C2=O

>  <Potency>
4.65 µM (active)

$$$$
